Source listed as PubChem BioAssay AID180.

# System: BDF1 mice, Adenocarcinoma 755 s.c., tumor weight T/C
# Test Method Notes: NCI In Vivo Anticancer Drug Screen. Data for tumor model Adenocarcinoma 755 (subcutaneous) in B6D2F1 (BDF1) mice
# Measurement Parameters: endpoint: mean tumor weight; dose: 100.0 mg/kg/injection; schedule: Q01DX011 (ip); vehicle: carboxymethylcellulose (CMC); higher = larger tumour
Readout Type: T/C

[[record]]
smiles_representation = "CCc1c(CC(=O)O)c2cc(C)ccc2n1Cc1ccc(Cl)cc1"
meas_value = "37 % of control"

[[record]]
smiles_representation = "Cc1cc(N=Nc2ccc(-c3ccc(N=Nc4ccc(O)c(C(=O)O)c4)cc3)cc2)c(N)c(N=Nc2ccc(C(=O)Nc3ccc4cc(S(=O)(=O)O)ccc4c3)cc2)c1N"
meas_value = "69 % of control"

[[record]]
smiles_representation = "c1ccc(CSc2ncnc3nc[nH]c23)nc1"
meas_value = "4 % of control"

[[record]]
smiles_representation = "FC(F)(F)c1nc(=S)c2[nH]cnc2[nH]1"
meas_value = "89 % of control"


Next up:
IN: Sample `CC[N+](C)(C)c1ncnc2nc[nH]c12` — what was its T/C?
OUT: 3 % of control
